Origin of the recorded values: paper doi:10.1101/2021.01.25.428124v1

molecules and their reported pKd
experimental_system: Methyl-coenzyme M reductase (MCR-I), Ni(I)-MCRred1 (Methanothermobacter marburgensis, UniProt P11558+P11560+P11562)
Sequence (P11558 2-550 limits assumed): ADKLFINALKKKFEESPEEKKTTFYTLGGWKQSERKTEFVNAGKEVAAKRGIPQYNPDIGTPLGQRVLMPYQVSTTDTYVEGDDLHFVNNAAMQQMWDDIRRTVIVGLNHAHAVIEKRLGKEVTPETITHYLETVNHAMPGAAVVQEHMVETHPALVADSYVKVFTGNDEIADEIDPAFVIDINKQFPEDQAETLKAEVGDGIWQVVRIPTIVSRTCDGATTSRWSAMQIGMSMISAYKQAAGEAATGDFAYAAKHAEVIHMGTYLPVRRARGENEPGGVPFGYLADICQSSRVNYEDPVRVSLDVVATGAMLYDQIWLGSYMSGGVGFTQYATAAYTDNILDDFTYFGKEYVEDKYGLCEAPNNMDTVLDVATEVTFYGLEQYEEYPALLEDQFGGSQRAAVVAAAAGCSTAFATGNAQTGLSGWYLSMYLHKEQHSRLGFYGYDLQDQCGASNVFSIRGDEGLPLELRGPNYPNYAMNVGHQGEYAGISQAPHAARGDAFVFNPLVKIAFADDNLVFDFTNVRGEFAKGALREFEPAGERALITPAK
Sequence (P11560 2-443 limits assumed): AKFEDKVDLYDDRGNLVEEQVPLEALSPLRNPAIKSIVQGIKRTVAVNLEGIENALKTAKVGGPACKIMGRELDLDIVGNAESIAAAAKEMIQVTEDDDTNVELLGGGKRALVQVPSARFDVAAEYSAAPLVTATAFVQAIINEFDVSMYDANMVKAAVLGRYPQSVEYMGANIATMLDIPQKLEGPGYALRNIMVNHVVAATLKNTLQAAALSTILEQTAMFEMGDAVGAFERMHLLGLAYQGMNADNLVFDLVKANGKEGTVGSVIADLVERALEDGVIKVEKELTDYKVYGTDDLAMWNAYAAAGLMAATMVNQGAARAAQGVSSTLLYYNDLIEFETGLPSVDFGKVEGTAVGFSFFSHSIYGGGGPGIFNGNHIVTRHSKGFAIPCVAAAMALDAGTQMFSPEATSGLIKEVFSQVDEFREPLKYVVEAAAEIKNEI
Sequence (P11562 2-249 limits assumed): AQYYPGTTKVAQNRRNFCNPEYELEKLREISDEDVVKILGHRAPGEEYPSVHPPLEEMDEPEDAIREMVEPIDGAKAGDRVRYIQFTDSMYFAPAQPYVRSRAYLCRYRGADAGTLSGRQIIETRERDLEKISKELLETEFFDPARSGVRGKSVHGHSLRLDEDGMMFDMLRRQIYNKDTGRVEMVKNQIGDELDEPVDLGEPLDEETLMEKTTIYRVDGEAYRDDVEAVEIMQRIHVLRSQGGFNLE
protocol_summary: biochemical
Quick note: pKd means taking -log10 of the concentration in moles per liter.

Worked cases, pKd given:
C[C@@H](OP(=O)(O)O)[C@H](NC(=O)CCCCCSSCCS(=O)(=O)O)C(=O)O [CoMSSCoB6]	3.98
C[C@@H](OP(=O)(O)O)[C@H](NC(=O)CCCCCCSSCCS(=O)(=O)O)C(=O)O [CoMSSCoB]	4.24
CCCCS(=O)(=O)O [But-SO3]	2.48

For the next question, use this molecule.
Noted for CSCCS(=O)(=O)O [methyl-SCoM, S-methyl-2-mercaptoethane sulfonate] : its pKd reads 4.56
